Biological target: T1, PUF4 RNA-binding domain (Saccharomyces cerevisiae, UniProt P25339 537-888)
T1 sequence: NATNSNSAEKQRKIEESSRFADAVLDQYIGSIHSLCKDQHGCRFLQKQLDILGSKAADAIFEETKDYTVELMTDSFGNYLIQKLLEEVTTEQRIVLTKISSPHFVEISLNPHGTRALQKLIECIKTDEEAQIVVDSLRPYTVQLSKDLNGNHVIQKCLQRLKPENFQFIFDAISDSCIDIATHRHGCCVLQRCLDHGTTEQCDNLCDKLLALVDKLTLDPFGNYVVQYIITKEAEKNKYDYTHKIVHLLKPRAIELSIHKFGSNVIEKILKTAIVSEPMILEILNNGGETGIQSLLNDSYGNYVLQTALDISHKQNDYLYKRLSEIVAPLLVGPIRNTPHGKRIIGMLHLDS
Test: Mg; RNA-MaP; 20 mM Na-HEPES pH 7.4, 30 mM KOAc, 0.75 mM MgCl2, 0.1% Tween-20, 5% glycerol, 0.1 mg/mL BSA, 2 mM DTT; 25 C; 0.0125-409.6 nM protein
Conditions: tags: N-His6-TEV cleaved; C-SNAP kept, Cy3B-labelled; label: tethered on chip by stalled RNA polymerase
observable: pKd
Scale: negative log10 of molar concentration, which is what pKd denotes.

[
  {
    "binder": "Id_ii_S2_P4E.3_K4.2_C4.2_[T-1G]_H4.2_A4.1_F4.1_T4.2_[G10T] (ssRNA) RNA: UUUGAUUAAUAUGAUAUCGUUCUUUCUCGUAUAUAUUAUUUUCUUUCUCGAUAUCAUAUUAAUCUUU",
    "pKd": 8.14
  }
]

Moving on to the next binder.
Given the binder Id_ii_S2_P3E.2_K3.1_C3.2_[C-2T]_[T-1A]_H3.1_A3.1_F3.1_T3.2_[T9A] (ssRNA) RNA: UUUGAUUAAUAUGAUAUCGUUCUUUCUUAUGUAUAUAAAUUCUUUCUCGAUAUCAUAUUAAUCUUU , write its reported pKd.
7.77
